# test system: T1, mouse Ig1,2 TrkA (recombinant D4-D5 domain of murine TrkA receptor) (mouse, UniProt Q3UFB7 193-413)
# T1 construct: also called mTrkA Ig1,2
# T1 sequence (Q3UFB7 other isoform, or with tags, fused parts or gaps limits assumed): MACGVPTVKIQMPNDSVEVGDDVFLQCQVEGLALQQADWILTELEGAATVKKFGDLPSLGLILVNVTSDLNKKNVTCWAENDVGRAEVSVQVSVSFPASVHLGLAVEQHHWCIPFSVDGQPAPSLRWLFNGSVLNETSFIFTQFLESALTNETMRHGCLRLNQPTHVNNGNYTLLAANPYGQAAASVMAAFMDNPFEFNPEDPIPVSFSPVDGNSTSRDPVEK
# assay procedure: SPR (Biacore X-100); scFv immobilised on CM5 chip, mouse Ig1,2 TrkA injected
measured attribute: kon (M⁻¹ s⁻¹)
// note: answer is a bare numeric in M⁻¹ s⁻¹

Below, each entry is followed by its recorded kon result.
>>> assay_result("anti-TrkA scFv CRB0089 (scFv, From hSPLINT_09 selection) scFv: QTVVTQEPSVSGAPGQRVTISCTGSSSIIGAGYEVHWYQHLPGTAPKLLIYDSINRPSGVPDRFSGSKSGTSASLAITGLQAEDEADYYCQSSAIFGGGTKLTVLSGGSTSGSGKPGSGEGSSGTQVQLQESGPGLVKPSQTLSLTCAISGDSVSSNSAAWNWIRQSPSRGLEWLGRTFHRSRWYNEYPVSVRSRITINPDTSNNQFTLQLNSVTPDDTAVYYCARAPVAGLTFDIWGQGTMVTVSS")
2250
>>> assay_result("anti-TrkA scFv CRB0088 (scFv, From hSPLINT_09 selection) scFv: QPVLTQSPPASASLGASVKLTCTLSSGHSSYAIAWHQQQPEKGPRYLMKVNSDGSHNKGDGIPDRFSGSRSGAERYLTISSLHSEDEADYYCQTWGAGGVVFGGGTKLTVLSGGSTSGSGKPGSGEGSSGTEVQLLESGGGLVQPGGSLRLSCAASGFTFSDHYMDWVRQAPGKGLEWVGRIRNKANSYTTEYAASVKGRFTISRDDSKKTLYLQMTSLKTDDTALYYCARDLGASDAFDLWGQGTMVTVSS")
3410
>>> assay_result("anti-TrkA scFv CRB0072 (scFv, From hSPLINT_09 selection) scFv: DIQMTQSPISLSATVGDRVTITCRASQSIGRYLNWYQQKPGKAPKLLIYGASSLESGVPSRFSGSGSGTVFTLTISGLQPEDFATYCCQQSHSTAWTFGQGTKVEIKSGGSTSGSGKPGSGEGSSGTEVQLVETGGGLVQPGSSLRLSCATSGFTFINYGVHWVRQPPGKGLEWVASIWYEGSNEKYADSVKGRFTISRDNSRYTLHLQLNSLRAEDTADYYCVRDRGTGDYRNSRFYYGMDVWGQGTTVTVSS")
2910
>>> assay_result("anti-TrkA scFv CRB0069 (scFv, From hSPLINT_09 selection) scFv: QPGLTQPPSASGTPGQRVTISCTGSSSNVGAGYTVHWYQQLPGTAPTLLIYDNNNRPSGVPDRFSGSRSGTSASLAITGLRAEDEADYYCQSYDRSRVYVFGTGTKLTVLSGGSTSGSGKPGSGEGSSGTQVQLQQSGPGLVKPSQTLSLTCAISGDSVSSNSAAWNWIRQSPSRGLERLGRTYYRSKWYNDYAESVKSRIIINSGTSKNQFSLHLNSVTPEDTAVYYCGRAKDGWYDAFDIWGQGTTVTVSS")
6120

**Query** Name the recorded kon of the item anti-TrkA scFv CRB0084 (scFv, From hSPLINT_09 selection) scFv: QPVLTQPPSVSVAPRQTATITCGGNYIGSKSVHWYQQKPGQDPVLVVNDDSDRPSGIPERFSGSNSANTATLTISGVEAGDEADYYCQVWDSSTEPVVFGGGTKLTVLSGGSTSGSGKPGSGEGSSGTQVQLQQWGAGLLRPSETLSLTCTVSGGSFSDSYWTWIRQSPGKGLEWIGENNHRGSTNYSPTLRSRLSISIDSSKNQFSLKLSSVTAADTAVYYCARVPYRLRSRIFDVWGQGTMVTVSS in your answer.
**Result** 10700
